Test system: 377384-186-R-J1-PDC complex spheroid viability;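 further: luminescence signal used as a stand-in for viable cells; spheroids exposed to agents for 7 days before reading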
Assay: Anticancer human tumor 377384-186-R-J1-PDC patient-derived pancreatic carcinoma cell line growth inhibition [CLK]
Conditions: second compound 0.1 µM; first compound 3.16 µM; stronger effect = lower value
REPORTED_ENDPOINT: viability, T/C (%)

[[record]]
molecule = "CCCS(=O)(=O)Nc1ccc(F)c(C(=O)c2c[nH]c3ncc(-c4ccc(Cl)cc4)cc23)c1F + CNC(=O)c1ccc(Nc2nc(OC3CCCC3)c3c(-c4ccc5nc(C)oc5c4)c[nH]c3n2)c(OC)c1"
assay_value = 44

[[record]]
molecule = "C=CC(=O)N1CCN(c2nc(=O)n(-c3c(C)ccnc3C(C)C)c3nc(-c4c(O)cccc4F)c(F)cc23)C(C)C1 (stereo not given) + CN1CCN(c2cc(C(=O)Nc3cc4cc(-c5cnn(C)c5)ccc4cn3)ccn2)CC1"
assay_value = 116

[[record]]
molecule = "COc1cccc2c1C(=O)c1c(O)c3c(c(O)c1C2=O)CC(O)(C(=O)CO)CC3OC1CC(N)C(O)C(C)O1 (stereo not given) + CN1CCN(c2cc(C(=O)Nc3cc4cc(-c5cnn(C)c5)ccc4cn3)ccn2)CC1"
assay_value = 4.01

[[record]]
molecule = "COc1ccc([C@@H](O)c2cc(-c3ncnc4cc(N5CCOCC5)ccc34)c(F)cc2Cl)nn1 + CN1CCN(c2cc(C(=O)Nc3cc4cc(-c5cnn(C)c5)ccc4cn3)ccn2)CC1"
assay_value = 57.6

[[record]]
molecule = "COc1ccc([C@@H](O)c2cc(-c3ncnc4cc(N5CCOCC5)ccc34)c(F)cc2Cl)nn1 + CNC(=O)c1ccc(Nc2nc(OC3CCCC3)c3c(-c4ccc5nc(C)oc5c4)c[nH]c3n2)c(OC)c1"
assay_value = 26.5

